Sourced from patent US20230049752A1

Entries and their FACS fluorescence values follow.
Target: human Claudin-6 (CLDN6) (human) (UniProt P56747)
Test: FACS, 1.5 ug Ab, ARK2 cells (2nd Ab only 1351.21)
// print number alone

Please fill in: FACS fluorescence reported for AB3-7 (antibody, V domains shown, humanized; also called AB23; humanized AB3-7) VH: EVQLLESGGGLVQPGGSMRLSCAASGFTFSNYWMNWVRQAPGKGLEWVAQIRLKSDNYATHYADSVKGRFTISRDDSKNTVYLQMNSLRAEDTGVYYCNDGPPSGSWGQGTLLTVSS VL: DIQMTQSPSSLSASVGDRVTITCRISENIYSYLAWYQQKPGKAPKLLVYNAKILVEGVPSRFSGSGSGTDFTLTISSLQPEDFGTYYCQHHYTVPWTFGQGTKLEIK = 90400
